ASSAYED_TARGET: NasF5053 (NascF5053) (Streptomyces sp. NRRL F-5053, UniProt A0A8I3B027, S284A/V288A)
Construct: codon-optimised gene in pET28a, E. coli BL21(DE3); heme protein
Sequence (A0A8I3B027 1-398 S284A/V288A): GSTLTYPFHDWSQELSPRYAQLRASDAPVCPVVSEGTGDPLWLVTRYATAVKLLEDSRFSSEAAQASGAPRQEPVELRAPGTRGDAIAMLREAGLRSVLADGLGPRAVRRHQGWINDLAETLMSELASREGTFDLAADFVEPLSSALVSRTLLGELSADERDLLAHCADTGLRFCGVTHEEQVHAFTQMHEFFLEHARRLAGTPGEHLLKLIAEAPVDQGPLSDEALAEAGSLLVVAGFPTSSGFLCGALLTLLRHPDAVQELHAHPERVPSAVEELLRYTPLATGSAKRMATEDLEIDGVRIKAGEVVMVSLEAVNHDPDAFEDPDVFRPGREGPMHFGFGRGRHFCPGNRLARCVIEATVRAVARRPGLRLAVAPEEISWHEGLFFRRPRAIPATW
ASSAY_PROCEDURE: UV-Vis difference spectra, Soret shift, hyperbolic fit
RUN_CONDITIONS: read-out: binding constant
pKd: −log10 of the molar value.

COMPOUND_SMILES	pKd
O=C1N[C@@H](Cc2c[nH]c3ccccc23)C(=O)N2CCC[C@@H]12	5.32

====

ASSAYED_TARGET: NasF5053 (NascF5053) (Streptomyces sp. NRRL F-5053, UniProt A0A8I3B027)

COMPOUND	ASSAYED_TARGET	Kd (µM)
O=C1N[C@@H](Cc2c[nH]c3ccccc23)C(=O)N2CCC[C@@H]12 [cWL-PL]	NasF5053 (NascF5053) (Streptomyces sp. NRRL F-5053, UniProt A0A8I3B027)	11.6

====

ASSAYED_TARGET: NasF5053 (NascF5053) (Streptomyces sp. NRRL F-5053, UniProt A0A8I3B027, A86G/Q65I)
Construct: codon-optimised gene in pET28a, E. coli BL21(DE3); heme protein
ASSAY_PROCEDURE: UV-Vis difference spectra, Soret shift, hyperbolic fit
RUN_CONDITIONS: read-out: binding constant

COMPOUND	ASSAYED_TARGET	Kd, µM
O=C1N[C@@H](Cc2c[nH]c3ccccc23)C(=O)N2CCC[C@@H]12 [cWL-PL]	NasF5053 (NascF5053) (Streptomyces sp. NRRL F-5053, UniProt A0A8I3B027, A86G/Q65I)	25.6
